# Tested on: SW-620 colon
# TEST: NCI-60 one-dose screen, 48 h
# CONDITIONS USED: 10 µM unless noted
This is part of a sample that, as a whole, favours compounds with a hit. Of some 83,000 tested, about 20% had one in any assay. Activity calls are given as the source filed them. Rule for the calls: active = growth percent below 10; inactive = the rest.
Use one of these outcomes when replying: TRUE (active), FALSE (inactive)

COMPOUND: C#CCOc1nc(C)cc(C)c1C#N
ASSIGNED CLASS: FALSE

COMPOUND: Cc1ccc(Cl)cc1NC(=O)c1cc2ccccc2cc1O
ASSIGNED CLASS: TRUE

COMPOUND: O=C(NC(Cc1nnc2n(Cc3ccccc3)c(=O)c3c4c(sc3n12)CCCC4)c1ccc(Cl)cc1)c1ccccc1 (stereo not given)
ASSIGNED CLASS: FALSE

Switching to the query record.
input: Each compound tested received a call. Report the one for `O=C(NCCNc1cc(-c2cn(-c3ccccc3)nc2-c2cccc(O)c2)ccn1)Nc1ccccc1` .
output: FALSE

----------
# Test system: NCI-H322M lung
# TEST: NCI-60 one-dose screen, 48 h (100 = growth as untreated, 0 = no growth, -100 = all killed)
# CONDITIONS USED: 10 µM unless noted
The panel holds about 83,000 compounds, 20% with a hit somewhere; the sample as a whole holds those more often.
OBSERVABLE: growth (%)
The answer is to be given in %; state only the numeric part.

COMPOUND: CCCCCCCOc1c(OC)cc(C2CC(=O)Nc3c2c(C)nn3-c2nc3ccccc3[nH]2)cc1OC (stereo not given)
OBSERVABLE: growth
REPORTED MEASUREMENT: 2.06

input: Fill in the recorded growth for this compound, with NCI-H322M lung as test system: `c1coc(-c2c3ccc(=[N+]4CCCCC4)cc-3oc3cc(N4CCCCC4)ccc23)c1`
output: -85.1

input: Fill in the recorded growth for this compound, with NCI-H322M lung as test system: `Cc1cccc(NC(=O)CSc2nc3ccccc3[nH]2)c1`
output: 97

input: Fill in the recorded growth for this compound, with NCI-H322M lung as test system: N#C/C(=C/C=C/c1cccc(Cl)c1)S(=O)c1ccccc1 (stereo not given)
output: -44.9

input: Fill in the recorded growth for this compound, with NCI-H322M lung as test system: `CCN(CC)c1ccc2nc3c4ccccc4c(=NC(=O)c4ccccc4-c4c5ccc(N(CC)CC)cc5[o+]c5cc(N(CC)CC)ccc45)cc-3oc2c1`
output: 11.6

----------
# System: OVCAR-5 ovarian
# TEST: NCI-60 one-dose screen, 48 h (100 = growth as untreated, 0 = no growth, -100 = all killed)
# CONDITIONS USED: 10 µM unless noted
The panel holds about 83,000 compounds, 20% with a hit somewhere; the sample as a whole holds those more often.
Mark True only for growth values smaller than 90%; exact matches and larger values are False.

Below, 3 compounds whose answers are already recorded.
COMPOUND: O=C1/C(=C\c2c[nH]c3ccccc23)c2ccccc2N1c1c(Cl)cccc1Cl
ASSIGNED CLASS: True

COMPOUND: CC1=C([Se]CC(OC(=O)[C@@H](CO)NC(=O)OC(C)(C)C)C(=O)NC(C)(C)C)C(=O)c2ccccc2C1=O (some centres undefined)
ASSIGNED CLASS: True

COMPOUND: COc1cc(C(=O)/C=C/c2c(C(F)(F)F)nc3sccn23)cc(OC)c1OC
ASSIGNED CLASS: True

input: Consider COc1ccc(C2=NN(C(=O)c3cc(OC)c(OC)c(OC)c3)C(c3ccc(Cl)cc3)C2)cc1OC (centres undefined) . Does its growth lie strictly below 90%?
output: True

input: Consider `Cc1cc(N2CCCC2)nc(NCc2cc(Nc3ccnc4cc(Cl)ccc34)ccc2F)n1` . Does its growth lie strictly below 90%?
output: True

The reported numbers originate from PubChem BioAssay (NCI).
